target: D-2 dopamine receptor (Rattus norvegicus); construct: homogenized limbic brain tissue is incubated with; from tissue; host or cells: homogenized limbic brain tissue; test: [3H]spiroperidol binding inhibition, homogenized limbic brain tissue
Sequence (P61169 whole entry): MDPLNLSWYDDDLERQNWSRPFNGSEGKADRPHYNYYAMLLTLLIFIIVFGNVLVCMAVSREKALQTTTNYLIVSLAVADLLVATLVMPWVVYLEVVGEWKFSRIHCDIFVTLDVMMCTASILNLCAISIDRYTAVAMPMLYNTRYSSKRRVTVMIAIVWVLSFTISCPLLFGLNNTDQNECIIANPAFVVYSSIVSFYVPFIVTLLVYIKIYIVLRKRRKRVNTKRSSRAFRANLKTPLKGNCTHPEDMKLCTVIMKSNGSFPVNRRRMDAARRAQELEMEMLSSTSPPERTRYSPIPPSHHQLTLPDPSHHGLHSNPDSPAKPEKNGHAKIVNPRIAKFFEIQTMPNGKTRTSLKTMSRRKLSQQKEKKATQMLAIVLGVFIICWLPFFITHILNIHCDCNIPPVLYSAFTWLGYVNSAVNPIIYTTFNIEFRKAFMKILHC
endpoint-label: inhibition at 1 µM

> print(dat)
                                   compound      endpoint.label  endpoint.result
1  O=C1C2C(C(=O)N1CCCCN1CCN(c3cnccn3)CC1)C1C3CC4C(C32)C41 (stereo not shown)  inhibition at 1 µM              25%
2  O=C1C2C3CC4C2C4C3C(=O)N1CCCCN1CCN(c2ncccn2)CC1  inhibition at 1 µM              51%
3  O=C1C2C3CC4C2C4C3C(=O)N1CCCCN1CCN(c2cncc(Cl)n2)CC1  inhibition at 1 µM              29%
4  O=C1C2C(C(=O)N1CCCCN1CCN(c3cncc(Cl)n3)CC1)C1C3CC4C(C32)C41 (stereo not shown)  inhibition at 1 µM              44%

###

test system: rats; assay: Conditioned avoidance, discrete trial (lever press substituted for shelf-jump), Avoidance Block; format: in vivo, rat; details: p.o.
endpoint-label: Conditioned Avoidance Discrete Trial AB50 (Avoidance Block)

> print(dat)
                                   compound  endpoint.result
1  O=C1C2C3CC4C2C4C3C(=O)N1CCCCN1CCN(c2ncccn2)CC1             weak
2  O=C1C2C(C(=O)N1CCCCN1CCN(c3ncccn3)CC1)C1C3CC4C(C32)C41 (stereo not shown)           active
3  O=C1C2C3CC4C2C4C3C(=O)N1CCCCN1CCN(c2cncc(Cl)n2)CC1           active

###

Biological target: 5-HT1A serotonin receptor (Rattus norvegicus)
Sequence (P19327 1-422): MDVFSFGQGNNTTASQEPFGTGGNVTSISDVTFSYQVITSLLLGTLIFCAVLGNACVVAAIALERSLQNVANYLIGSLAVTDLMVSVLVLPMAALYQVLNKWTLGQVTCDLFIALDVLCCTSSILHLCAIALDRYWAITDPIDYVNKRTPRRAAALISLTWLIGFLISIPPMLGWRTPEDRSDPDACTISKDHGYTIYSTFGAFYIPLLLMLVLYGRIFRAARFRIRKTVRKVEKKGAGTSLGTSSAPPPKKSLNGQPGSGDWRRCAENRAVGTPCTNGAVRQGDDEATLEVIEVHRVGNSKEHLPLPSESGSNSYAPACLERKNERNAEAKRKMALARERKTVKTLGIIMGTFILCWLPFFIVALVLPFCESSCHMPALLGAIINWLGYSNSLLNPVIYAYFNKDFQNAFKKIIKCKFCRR
endpoint-label: Ki (nM)

> print(dat)
                                   molecule                               test.system  endpoint.label  result.unit  endpoint.result
1  O=C1C2C(C(=O)N1CCCCN1CCN(c3ncccn3)CC1)C1C3CC4C(C32)C41 (centres unmarked)  5-HT1A serotonin receptor (Rattus norvegicus)              Ki           nM             12.8
2  O=C1C2C3CC4C2C4C3C(=O)N1CCCCN1CCN(c2ncccn2)CC1  5-HT1A serotonin receptor (Rattus norvegicus)              Ki           nM               16
